Target: TBK1 (Homo sapiens)
Test: TBK biochemical assay
Conditions: 10 point 1:4 dose response, 30 uM top concentration, 90 min at 25° C., LabChip EZ Reader II; read-out: TBK1_IC50
For each record, write down the corresponding IC50.

Fill in: IC50 on TBK1 (Homo sapiens), entry COc1nc(Nc2nccc(-c3ccc(OC4CCN(C(=O)[C@@H](C)O)CC4(F)F)c(C#N)c3)n2)ccc1N1CCN(C)CC1C (stereo in doubt)
< 100 nM

Fill in: IC50 on TBK1 (Homo sapiens), entry `COc1nc(Nc2nccc(-c3ccc(OC4CCOCC4)c(C#N)c3)n2)ccc1N1CCN(C2COC2)CC1`
< 100 nM

Fill in: IC50 on TBK1 (Homo sapiens), entry COc1nc(Nc2nccc(-c3ccc(OC4CCN(C(=O)[C@H](C)O)CC4(F)F)c(C#N)c3)n2)ccc1N1CCN(C)CC1C (stereo in doubt)
< 100 nM

Fill in: IC50 on TBK1 (Homo sapiens), entry `COc1nc(Nc2nccc(-c3ccc(OC4(C)CCN(C(=O)[C@@H](O)CO)CC4)c(C#N)c3)n2)ccc1N1CCN(C2COC2)CC1`
< 100 nM

Fill in: IC50 on TBK1 (Homo sapiens), entry `COc1cc(Nc2nccc(-c3cc(C#N)c(OC4CCOCC4)cn3)n2)ncc1C(=O)N(C)C`
> 5000 nM

* * *

Target: UniProtKB Q14164
Sequence (Q14164 whole entry, species assumed): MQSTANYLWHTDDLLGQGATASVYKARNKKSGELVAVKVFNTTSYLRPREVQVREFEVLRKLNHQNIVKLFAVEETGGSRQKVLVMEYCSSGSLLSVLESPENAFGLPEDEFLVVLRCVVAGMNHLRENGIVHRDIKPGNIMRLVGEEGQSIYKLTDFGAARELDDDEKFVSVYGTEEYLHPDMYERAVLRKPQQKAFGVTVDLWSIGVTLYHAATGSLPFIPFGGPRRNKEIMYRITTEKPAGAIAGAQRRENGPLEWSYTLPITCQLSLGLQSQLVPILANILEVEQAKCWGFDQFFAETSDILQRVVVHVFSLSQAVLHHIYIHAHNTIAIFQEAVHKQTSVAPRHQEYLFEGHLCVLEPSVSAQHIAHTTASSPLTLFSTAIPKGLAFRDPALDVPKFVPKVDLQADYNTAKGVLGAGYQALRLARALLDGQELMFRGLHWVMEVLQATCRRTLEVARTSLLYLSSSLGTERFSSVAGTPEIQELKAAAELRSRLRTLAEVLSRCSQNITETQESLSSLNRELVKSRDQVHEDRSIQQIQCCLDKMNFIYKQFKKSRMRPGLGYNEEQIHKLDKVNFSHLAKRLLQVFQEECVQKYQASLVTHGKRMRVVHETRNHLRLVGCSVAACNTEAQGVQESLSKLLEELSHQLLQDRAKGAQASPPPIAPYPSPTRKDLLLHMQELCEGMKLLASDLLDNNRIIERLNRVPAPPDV
Assay: IKKε biochemical assay
Conditions: 10 point 1:4 dose response, 30 uM top concentration, 90 min at 25° C., LabChip EZ Reader II; read-out: IKKε_IC50
Where a name gives a salt, the structure may show the parent alone.
QUANTITY KIND: IC50

Provide one value: measured IC50 of `COc1cc(C(=O)N(C)C)cnc1Nc1nccc(-c2ccc(NC3CCOCC3)c(C#N)c2)n1`
> 5 µM

Provide one value: measured IC50 of COc1nc(Nc2nccc(-c3ccc(OC4CCN(C(=O)[C@H](C)O)CC4(F)F)c(C#N)c3)n2)ccc1C(=O)N(C)C (stereo partly shown)
< 0.1 µM

Provide one value: measured IC50 of COc1cc(Nc2nccc(-c3ccc(OC4CCOCC4)c(C#N)c3)n2)ncc1N1CCN(C)CC1 [Example 53, hydrochloride]
0.1 to 1 µM

Provide one value: measured IC50 of COc1nc(Nc2nccc(-c3ccc(OC4CCN(C(=O)[C@@H](O)C(C)C)CC4(F)F)c(C#N)c3)n2)ccc1C1CCN(C2COC2)CC1 (stereo partly shown)
< 0.1 µM

* * *

Target: TBK1 (Homo sapiens, UniProt Q9UHD2)
Sequence (Q9UHD2 whole entry, species assumed): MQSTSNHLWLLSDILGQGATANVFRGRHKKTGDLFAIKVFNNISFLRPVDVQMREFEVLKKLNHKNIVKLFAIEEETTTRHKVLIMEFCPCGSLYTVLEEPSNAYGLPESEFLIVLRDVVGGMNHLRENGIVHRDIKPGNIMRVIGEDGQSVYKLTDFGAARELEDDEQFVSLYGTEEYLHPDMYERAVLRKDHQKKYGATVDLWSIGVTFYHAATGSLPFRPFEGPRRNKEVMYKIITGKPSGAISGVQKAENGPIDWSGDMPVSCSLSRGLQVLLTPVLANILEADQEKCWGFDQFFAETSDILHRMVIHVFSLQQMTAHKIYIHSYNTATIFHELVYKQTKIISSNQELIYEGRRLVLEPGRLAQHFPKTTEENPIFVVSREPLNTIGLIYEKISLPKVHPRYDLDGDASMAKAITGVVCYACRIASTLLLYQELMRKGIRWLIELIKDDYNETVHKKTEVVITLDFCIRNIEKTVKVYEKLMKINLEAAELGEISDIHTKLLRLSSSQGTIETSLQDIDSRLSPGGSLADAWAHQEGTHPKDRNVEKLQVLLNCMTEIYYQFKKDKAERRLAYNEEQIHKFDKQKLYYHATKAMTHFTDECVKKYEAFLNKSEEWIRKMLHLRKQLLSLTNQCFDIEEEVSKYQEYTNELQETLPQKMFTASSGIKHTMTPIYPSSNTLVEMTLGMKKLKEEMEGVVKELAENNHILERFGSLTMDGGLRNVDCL
Assay: TBK biochemical assay
Settings: 10 point 1:4 dose response, 30 uM top concentration, 90 min at 25° C., LabChip EZ Reader II; read-out: TBK1_IC50
Experimental: Test compounds were transferred into Labcyte polypropylene 384 well plates (P055-25) and diluted to 3 mM using DMSO. […] 100 uM of a reference compound (1 uM final high concentration). Backfilling was performed if necessary so that all wells contain 1% DMSO final: […]
QUANTITY KIND: IC50

Fill in: IC50 on TBK1 (Homo sapiens, UniProt Q9UHD2), entry COc1nc(Nc2nccc(-c3ccc(OC4CCN(C(=O)[C@H](C)O)CC4(F)F)c(C#N)c3)n2)ccc1N1CCN(C2COC2)C[C@H]1C (stereo partly drawn)
< 100 nM

Fill in: IC50 on TBK1 (Homo sapiens, UniProt Q9UHD2), entry COc1nc(Nc2ncc(F)c(-c3ccc(O[C@H]4CCN(C(=O)C(C)O)C[C@H]4F)c(C#N)c3)n2)ccc1N1CCN(C2COC2)CC1 (stereo in doubt)
< 100 nM

Fill in: IC50 on TBK1 (Homo sapiens, UniProt Q9UHD2), entry COc1nc(Nc2nccc(-c3ccc(OC4(C)CCNCC4(F)F)c(C#N)c3)n2)ccc1N1CCN(C2COC2)CC1 (stereo not drawn)
< 100 nM

Provenance of the data: patent US20230019491A1
